Reference for the values: patent US12122761B2

STUDY SYSTEM: Cloned human M1 receptor (CHRM1) stably expressed in HEK293 cells (Homo sapiens, UniProt P11229)
Construct: expressed in transfected cells; host or cells: HEK293
Sequence (P11229 whole entry): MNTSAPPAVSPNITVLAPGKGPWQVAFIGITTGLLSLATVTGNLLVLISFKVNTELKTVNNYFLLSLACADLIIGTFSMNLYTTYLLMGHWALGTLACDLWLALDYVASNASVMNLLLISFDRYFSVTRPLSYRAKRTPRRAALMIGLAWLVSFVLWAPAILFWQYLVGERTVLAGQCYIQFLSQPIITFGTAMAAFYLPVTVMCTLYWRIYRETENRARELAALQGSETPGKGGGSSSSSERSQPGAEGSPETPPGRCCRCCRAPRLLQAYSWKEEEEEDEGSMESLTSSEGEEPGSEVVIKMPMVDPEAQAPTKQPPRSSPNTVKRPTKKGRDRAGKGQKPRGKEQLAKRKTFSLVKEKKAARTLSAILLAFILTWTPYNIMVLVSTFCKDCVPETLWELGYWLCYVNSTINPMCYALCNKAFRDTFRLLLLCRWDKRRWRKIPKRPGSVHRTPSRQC
METHOD SUMMARY: CHRM1 Ca++ Flux Assay (agonist mode, FDSS 7000EX)
Assay type: cell-based
TEST CONTEXT: HEK293, Percent Activity, read-out: M1 FDSS PA
ATTRIBUTE MEASURED: Emax (%)

Worked cases, Emax given:
- c1ccc(C2CCN([C@@H]3CCC4(C3)CN(c3nnco3)C4)CC2)c(OC[C@H]2COCCO2)c1 [Example 1C]: 85
- COc1ccccc1C1CCN([C@@H]2CCC3(C2)CN(c2ccc(C)nc2)C3)CC1 [Example 5D]: 0

a = COc1ccccc1C1CCN([C@@H]2CCC3(C2)CN(c2ncnc(C)n2)C3)CC1 [Example 5M]
b = O=C(C1COC1)N1CC2(CC[C@@H](N3CCC(c4ccccc4OC4CCCC4)CC3)C2)C1 [Example 7G]
input: Between a and b , which one has the lower reported Emax value? Refer to your chosen item by its label in the answer.
output: a
(a: 0%, b: 65%)

---

STUDY SYSTEM: human cloned CHRM2 receptor (M2_CHO cells) (Homo sapiens)
Construct: expressed in transfected cells; host or cells: CHO-K1
Sequence (P08172 1-466): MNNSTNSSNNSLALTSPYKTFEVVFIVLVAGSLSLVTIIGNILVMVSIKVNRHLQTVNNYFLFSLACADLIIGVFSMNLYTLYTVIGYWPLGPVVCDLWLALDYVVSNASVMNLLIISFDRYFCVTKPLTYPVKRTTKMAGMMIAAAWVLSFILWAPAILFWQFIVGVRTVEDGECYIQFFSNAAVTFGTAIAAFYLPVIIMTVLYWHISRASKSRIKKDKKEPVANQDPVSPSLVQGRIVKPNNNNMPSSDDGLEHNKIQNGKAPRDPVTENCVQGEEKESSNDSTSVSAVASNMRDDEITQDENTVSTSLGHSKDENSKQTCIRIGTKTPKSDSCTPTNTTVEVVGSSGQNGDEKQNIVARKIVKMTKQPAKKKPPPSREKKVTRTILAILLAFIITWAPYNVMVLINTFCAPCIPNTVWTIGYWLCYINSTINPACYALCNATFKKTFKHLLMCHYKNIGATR
METHOD SUMMARY: CHRM2 Ca++ Flux Assay (agonist mode, FDSS 7000EX)
Type: cell-based
TEST CONTEXT: agonist mode; geometric mean if tested more than once; read-out: M2 FDSS EC50
pEC50: −log10 of the molar value.
ATTRIBUTE MEASURED: pEC50

a = c1ccc(C2CCN([C@@H]3CCC4(C3)CN(c3cncnc3)C4)CC2)c(O[C@@H]2CCOC2)c1
b = c1ccc(C2CCN([C@@H]3CCC4(C3)CN(c3nncs3)C4)CC2)c(OC[C@H]2COCCO2)c1
c = Cc1nnc(COc2ccccc2C2CCN([C@@H]3CCC4(C3)CN(C(=O)C3(F)CC3)C4)CC2)s1 (single isomer, unassigned)
d = O=C(C1COC1)N1CC2(CC[C@@H](N3CCC(c4ccccc4OC4CC4)CC3)C2)C1
input: Quick favor: sort the compounds up above by pEC50, largest first. Answer format: list of labels, ordered as asked.
output: a, b, d, c
(a: 8.15, b: 7.74, d: 6.85, c: 5.18)
